Every entry's value here was drawn from ChEMBL document CHEMBL4665632.

Record form. Attribute: IC50. Fill in for each entry.
Target: MAP kinase-interacting serine/threonine-protein kinase 2 (Homo sapiens, UniProt Q9HBH9)
Sequence (Q9HBH9 whole entry, the tested form may be a part): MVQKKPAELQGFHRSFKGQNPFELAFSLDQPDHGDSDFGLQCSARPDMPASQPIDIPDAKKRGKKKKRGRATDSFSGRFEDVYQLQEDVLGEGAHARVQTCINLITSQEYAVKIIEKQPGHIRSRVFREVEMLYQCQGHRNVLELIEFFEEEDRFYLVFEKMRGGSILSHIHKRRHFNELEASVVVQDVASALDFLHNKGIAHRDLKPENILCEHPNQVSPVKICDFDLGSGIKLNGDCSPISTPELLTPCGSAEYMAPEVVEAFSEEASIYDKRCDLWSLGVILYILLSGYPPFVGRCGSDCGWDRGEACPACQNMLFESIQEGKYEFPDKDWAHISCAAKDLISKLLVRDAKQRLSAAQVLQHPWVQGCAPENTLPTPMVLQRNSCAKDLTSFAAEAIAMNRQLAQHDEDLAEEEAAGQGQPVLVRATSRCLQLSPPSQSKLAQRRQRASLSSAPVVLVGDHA
Experiment: Inhibition of recombinant human N-terminal GST-tagged MNK2 (1 to 465 residues) expressed in baculovirus expression system using TATKSGSTTKNR as substrate preincubated for 10 mins followed by ATP addition and measured after 40 mins by luminescence based assay

Take a look at these entries with their results.
Cc1cccc(Nc2cc(C)c3n(c2=O)C2(CCCCC2)NC3=O)n1 :: > 500 nM
Cc1cc(Nc2cccnc2)c(=O)n2c1C(=O)NC21CCCCC1 :: > 500 nM
Cc1cc(Nc2cnccn2)c(=O)n2c1C(=O)NC21CCCCC1 :: > 500 nM
Cc1cc(Nc2ccccn2)c(=O)n2c1C(=O)NC21CCCCC1 :: > 500 nM
Cc1cc(Nc2cn(C)nc2C(F)F)c(=O)n2c1C(=O)NC21CCCCC1 :: > 500 nM
Cc1cc(Nc2nccc(N)n2)c(=O)n2c1C(=O)NC21CCCCC1 :: > 500 nM

Provide the reported IC50 of each entry below, same order.
1. Cc1cc(Nc2cc(N)ccn2)c(=O)n2c1C(=O)NC21CCCCC1
2. Cc1cc(Nc2ncccn2)c(=O)n2c1C(=O)NC21CCCCC1

1: > 500 nM; 2: > 500 nM

Provide the reported IC50 of each entry below, same order.
1. Cc1cc(Nc2cn(C)nc2C#N)c(=O)n2c1C(=O)NC21CCCCC1
2. Cc1cc(Nc2cncc(N)n2)c(=O)n2c1C(=O)NC21CCCCC1

> 500 nM
> 500 nM

Provide the reported IC50 of each entry below, same order.
1. Cc1cc(Nc2cccnn2)c(=O)n2c1C(=O)NC21CCCCC1
2. Cc1cccnc1Nc1cc(C)c2n(c1=O)C1(CCCCC1)NC2=O
3. Cc1cc(Nc2cc(NC3CCNCC3)ncn2)c(=O)n2c1C(=O)NC21CCCCC1

1. > 500 nM
2. > 500 nM
3. 49.8 nM

Provide the reported IC50 of each entry below, same order.
1. Cc1cc(Nc2cc(N3CCNCC3)ncn2)c(=O)n2c1C(=O)NC21CCCCC1
2. Cc1cc(Nc2ccnc(N)n2)c(=O)n2c1C(=O)NC21CCCCC1
3. Cc1cc(Nc2ccnc(N)c2)c(=O)n2c1C(=O)NC21CCCCC1

1: 18.3 nM; 2: 228 nM; 3: 48.2 nM

Would you mind telling me what IC50 value was observed for Cc1cc(Nc2cc(C)c3n(c2=O)C2(CCCCC2)NC3=O)ccn1 ? 398 nM

---

Target: MAP kinase-interacting serine/threonine-protein kinase 1 (Homo sapiens)
Sequence (Q9BUB5 whole entry, looked up): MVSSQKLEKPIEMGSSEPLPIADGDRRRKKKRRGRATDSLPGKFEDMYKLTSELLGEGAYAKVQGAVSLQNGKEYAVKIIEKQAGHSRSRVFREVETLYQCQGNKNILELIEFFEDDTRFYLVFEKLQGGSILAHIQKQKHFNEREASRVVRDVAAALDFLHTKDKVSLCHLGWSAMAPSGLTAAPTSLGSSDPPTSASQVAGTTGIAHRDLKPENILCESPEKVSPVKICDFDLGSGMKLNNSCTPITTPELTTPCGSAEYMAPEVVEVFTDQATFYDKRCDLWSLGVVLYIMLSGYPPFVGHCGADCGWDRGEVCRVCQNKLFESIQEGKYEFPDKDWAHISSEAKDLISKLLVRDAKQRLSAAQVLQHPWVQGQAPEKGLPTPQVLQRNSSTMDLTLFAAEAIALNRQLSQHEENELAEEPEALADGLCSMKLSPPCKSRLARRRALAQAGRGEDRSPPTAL
Test: Inhibition of MNK1 (unknown origin) at 100 nM incubated for 60 mins by HTRF assay
Please use y whenever inhibition is not below 50%, and n whenever it is.

Cc1cc(Nc2cn(C)nc2C#N)c(=O)n2c1C(=O)NC21CCCCC1 :: n
Cc1cc(Nc2cc(N3CCC(N)CC3)ncn2)c(=O)n2c1C(=O)NC21CCCCC1 :: y
Cc1cc(Nc2ccnc(N)n2)c(=O)n2c1C(=O)NC21CCCCC1 :: y
Cc1cc(Nc2cc(N3CCCCC3)ncn2)c(=O)n2c1C(=O)NC21CCCCC1 :: n
Cc1cc(Nc2ccnnc2)c(=O)n2c1C(=O)NC21CCCCC1 :: y

Hello, I need to know if Cc1cc(Nc2cc(N3CCNCC3)ncn2)c(=O)n2c1C(=O)NC21CCCCC1 has measured inhibition not below 50%. Thanks! y
